Starred links: 1 amine or outer side, 2 acyl side, 3 side chain; linkers in the order of their positions; H or OH if unused. Non-standard residues stand in square brackets, D forms with d. Residues, ends and D or L forms follow the SMILES beside them. LeuΨ(S-CHOHCH2)Ala = CC(C)C[C@H](N[*:1])[C@@H](O)C[C@@H](C)C(=O)[*:2]
The reader will find IC50 measurements below, all made with Cathepsin D (Homo sapiens).
Sequence (P07339 65-162 limits assumed): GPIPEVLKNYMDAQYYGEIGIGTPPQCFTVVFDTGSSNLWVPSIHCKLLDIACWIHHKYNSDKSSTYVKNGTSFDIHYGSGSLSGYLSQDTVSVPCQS
Sequence (P07339 169-412 limits assumed): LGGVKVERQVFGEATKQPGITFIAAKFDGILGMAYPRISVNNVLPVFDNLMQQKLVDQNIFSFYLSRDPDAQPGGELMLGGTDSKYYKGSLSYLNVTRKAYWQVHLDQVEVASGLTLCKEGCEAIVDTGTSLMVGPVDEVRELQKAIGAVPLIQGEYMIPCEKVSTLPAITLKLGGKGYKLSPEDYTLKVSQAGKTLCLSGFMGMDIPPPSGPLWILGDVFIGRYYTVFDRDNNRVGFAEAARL

Exam item: Item under review: `CCCCNC(=O)[C@@H](NC(=O)[C@@H]1OCC[C@H]1[C@H](O)[C@H](CC(C)C)NC(=O)[C@H](CCSC)NC(=O)[C@H](CC(C)C)NC(C)=O)C(C)C` . Reported IC50?
Marked response: 280 nM

Exam item: Item under review: CC(C)C[C@H](NC(=O)[C@H](CC(N)=O)NC(=O)[C@@H](NC(=O)[C@@H](N)CCC(=O)O)C(C)C)[C@@H](O)C[C@@H](C)C(=O)N[C@@H](C)C(=O)O (H-EVN[LeuΨ(S-CHOHCH2)Ala]A-OH) . Reported IC50?
Marked response: 98 nM
